Taken from patent US20260242478A1.

Property: Anti-CD28 Fab signal in the presence of CD28; scope: individual binders
- study-system: T1, Anti-CD28 Fab (SEQ ID NOs: 696, 697)
- T1 construct: Biotinylated and captured on neutravidin coated plates in the phage ELISA
- T1 sequence (VH, as listed by the source, chain 1 of 2): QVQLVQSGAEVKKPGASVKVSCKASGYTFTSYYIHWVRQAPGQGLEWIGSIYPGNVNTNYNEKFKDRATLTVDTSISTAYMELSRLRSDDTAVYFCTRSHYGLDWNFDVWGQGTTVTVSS
- T1 sequence (VL, as listed by the source, chain 2 of 2): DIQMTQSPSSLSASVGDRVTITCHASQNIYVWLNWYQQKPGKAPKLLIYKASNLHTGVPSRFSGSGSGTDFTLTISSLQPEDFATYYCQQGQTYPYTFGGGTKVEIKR
- method: phage binding ELISA; Fab wells pre-incubated with CD28 antigen as competitor, anti-M13 HRP
Where no end group is shown, it is not given here.
Output: the number by itself.

Some entries whose results are on file:
{"columns": ["binder", "test-result"],
 "data": [
  ["YCEGHSPEYMAKCL (cysteine pairing not given here; also: displayed on phage as fusion to pIII, linker, pIII sequence and order not given here, Clonal phage supernatant; not shown: pIII filament protein of the bacteriophage to which the peptide is fused) [Phage-526]", 0.07],
  ["YCDGHLPEYMSKCL (cysteine pairing not given here; also: displayed on phage as fusion to pIII, linker, pIII sequence and order not given here, Clonal phage supernatant; not shown: pIII filament protein of the bacteriophage to which the peptide is fused) [Phage-527]", 0.14],
  ["YCDGHSPLYMWKCL (cysteine pairing not given here; also: displayed on phage as fusion to pIII, linker, pIII sequence and order not given here, Clonal phage supernatant; not shown: pIII filament protein of the bacteriophage to which the peptide is fused) [Phage-534]", 0.08]
]}

In the following, a different binder is considered.
Entry YCEGHLPQYMAKCL (cysteine pairing not given here; also: displayed on phage as fusion to pIII, linker, pIII sequence and order not given here, Clonal phage supernatant; not shown: pIII filament protein of the bacteriophage to which the peptide is fused) [Phage-533] has what Anti-CD28 Fab signal in the presence of CD28?
0.14
